Where do these numbers come from? They come from the supplement of paper PMC11246515.

- measurement.notes: total protein half-life in vivo (active degradation + dilution); higher = more stable protein
- test.conditions: E. coli NCM3722 delta-clpP delta-lon delta-hslV; growth: N-lim chemostat; doubling time 6 h
A collection of sequences and their measured total protein half-life in vivo
property: total protein half-life in vivo (h)

MKNKLPPFIEIYRALIATPSISATEEALDQSNADLITLLADWFKDLGFNVEVQPVPGTRNKFNMLASIGQGAGGLLLAGHTDTVPFDDGRWTRDPFTLTEHDGKLYGLGTADMKGFFAFILDALRDVDVTKLKKPLYILATADEETSMAGARYFAETTALRPDCAIIGEPTSLQPVRAHKGHISNAIRIQGQSGHSSDPARGVNAIELMHDAIGHILQLRDNLKERYHYEAFTVPYPTLNLGHIHGGDASNRICACCELHMDIRPLPGMTLNELNGLLNDALAPVSERWPGRLTVDELHPPIPGYECPPNHQLVEVVEKLLGAKTEVVNYCTEAPFIQTLCPTLVLGPGSINQAHQPDEYLETRFIKPTRELITQVIHHFCWH: 4.97
MARTKLKFRLHRAVIVLFCLALLVALMQGASWFSQNHQRQRNPQLEELARTLARQVTLNVAPLMRTDSPDEKRIQAILDQLTDESRILDAGVYDEQGDLIARSGESVEVRDRLALDGKKAGGYFNQQIVEPIAGKNGPLGYLRLTLDTHTLATEAQQVDNTTNILRLMLLLSLAIGVVLTRTLLQGKRTRWQQSPFLLTASKPVPEEEESEKKE [P0AGC7]: 4.45
MKKIAITCALLSSLVASSVWADAASDLKSRLDKVSSFHASFTQKVTDGSGAAVQEGQGDLWVKRPNLFNWHMTQPDESILVSDGKTLWFYNPFVEQATATWLKDATGNTPFMLIARNQSSDWQQYNIKQNGDDFVLTPKASNGNLKQFTINVGRDGTIHQFSAVEQDDQRSSYQLKSQQNGAVDAAKFTFTPPQGVTVDDQRK: 4.62
